system: Athelia rolfsii; test: Antifungal activity against Athelia rolfsii assessed as growth inhibition at 1000 ppm by agar dilution method relative to control; type: functional; conditions: Agroathelia rolfsii; read-out: GI
We begin with a simple list: items and their reported inhibition of growth at 1000 ppm.
Readout Label: inhibition of growth at 1000 ppm (%)

1) COP(=S)(OC)Oc1cc(CCc2ccccc2)oc(=O)c1
98
2) CCOP(=S)(OCC)Oc1cc(CCc2ccccc2)oc(=O)c1
66
3) COc1cc(/C=C/c2ccccc2)oc(=O)c1
54
4) O=c1cc(O)cc(CCc2ccccc2)o1
100
5) COc1cc(CCc2ccccc2)oc(=O)c1 [DIHYDRO-5,6-DEHYDROKAWAIN]
96

Provenance of the data: ChEMBL document CHEMBL3044969
